- TARGET_SYSTEM: L-aspartate-α-decarboxylase (Escherichia coli)
- Construct: expressed in transfected cells; host or cells: E. coli W3110 transformed with pIF309 = strain NS3291 (ATCC 98675), whole cells
- ASSAY_TEXT: Activity towards D/L-glutamate and D/L-alanine, D/L-aspartate as control (Example 8)
- Type: biochemical, E. coli K12
- MEASUREMENT_CONDITIONS: 55 hr; racemate substrate, pH 7.0
PROPERTY_NAME: percent remaining (%)
Give just the number in %; leave the unit off.

These solved cases illustrate the format of a correct answer.
N[C@@H](CCC(=O)O)C(=O)O [L-Glu] | 95.400
C[C@@H](N)C(=O)O [D-Ala] | 91.610
N[C@H](CCC(=O)O)C(=O)O [D-Glu] | 101.36
N[C@H](CC(=O)O)C(=O)O [D-Asp, D-aspartic acid] | 100.77

In: Assign percent remaining to the following record: C[C@H](N)C(=O)O [L-Ala]
Out: 92.288
